B1: FAM46D (parent)
chain: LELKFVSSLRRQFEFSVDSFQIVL

Variants of: B1
experiment-summary: protein stability index of a GFP-peptide fusion (GPS, HEK-293T) (PSI 1-6); higher = more stable;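 further: lentivirally expressed fusions sorted by FACS into six bins by GFP to DsRed ratio, PSI derived from sequencing read proportions per bin multiplied by bin number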
setup-conditions: c terminus: a fixed tail appended
value-kind: protein stability index
// print number alone

- variant-identifier: "V6G"
  protein stability index: 2.81
- variant-identifier: "L3W"
  protein stability index: 2.77
- variant-identifier: "V17C"
  protein stability index: 3.37
- variant-identifier: "E14A"
  protein stability index: 3.98
- variant-identifier: "E14V"
  protein stability index: 2.06
- variant-identifier: "L1G"
  protein stability index: 2.02

Query: Recorded protein stability index for `Q12F` , please?
Reply: 2.68

Query: Recorded protein stability index for `Q21W` , please?
Reply: 2.89

Query: Recorded protein stability index for `F5M` , please?
Reply: 4.22
